The origin of these recorded values is paper PMC12232725.

biological target: N protein (unphosphorylated, lambda-phosphatase treated) (SARS-CoV-2 (isolate Wuhan-Hu-1), UniProt P0DTC9 1-419); experiment: MST; apparent; Hill nH = 1.7 +/- 0.4; conditions: protein: recombinant; tags: His6-MBP tag cleaved (3C); linker remnant possible; chain copies: 2; stem loop
ENDPOINT_LABEL: Kd (nM)

1) GAUCUCUUGUAGAUCUGUUCUCUAAACGAACUUUAAAAUCUGUGUGGCUG (ssRNA) [50-nt RNA-Cy5] ... 3
